For each record, write down the corresponding viability, T/C.
System: 931267-113-T-J1-PDC KRAS spheroid with HUVEC/MSC, viability
Test: Anticancer human tumor 931267-113-T-J1-PDC patient-derived colon adenocarcinoma cell line growth inhibition [KRAS2]
Conditions: second compound 0.1 µM; first compound 0.01 µM; stronger effect = lower value

(Q) Indicate its recorded viability, T/C; the compound in question is CCN1CCN(Cc2ccc(Nc3ncc(F)c(-c4cc(F)c5nc(C)n(C(C)C)c5c4)n3)nc2)CC1 + CC1OCC2(CCN(c3cnc(Sc4ccnc(N)c4Cl)c(N)n3)CC2)C1N
(A) 58.2%

(Q) Complete the entry with viability, T/C for CC(=O)Nc1cccc(-n2c(=O)n(C3CC3)c(=O)c3c(Nc4ccc(I)cc4F)n(C)c(=O)c(C)c32)c1 + C=CC(=O)N1CCN(c2nc(OCC3CCCN3C)nc3c2CCN(c2cccc4cccc(C)c24)C3)CC1CC#N
(A) 59.5%

(Q) Report measured viability, T/C; entry is CC1COCCN1c1cc(-c2ccnn2C)c2ccnc(-c3ccn[nH]3)c2n1 (stereo unspecified) + C=CC(=O)N1CCN(c2nc(OCC3CCCN3C)nc3c2CCN(c2cccc4cccc(C)c24)C3)CC1CC#N
(A) 122%

(Q) Using the record for CC(C)n1nc(-c2ccc3oc(N)nc3c2)c2c(N)ncnc21 + CC1OCC2(CCN(c3cnc(Sc4ccnc(N)c4Cl)c(N)n3)CC2)C1N , state its measured viability, T/C.
(A) 42.8%

(Q) Input CC(=O)Nc1cccc(-n2c(=O)n(C3CC3)c(=O)c3c(Nc4ccc(I)cc4F)n(C)c(=O)c(C)c32)c1 + CNCc1ccccc1-c1csc(C(C)Nc2nc(C)nc3cc(OC)c(OC)cc23)c1 , output reported viability, T/C.
(A) 56%

(Q) Give viability, T/C for the following compound: CC(=O)OC12COC1CC(O)C1(C)C(=O)C(O)C3=C(C)C(OC(=O)C(O)C(NC(=O)OC(C)(C)C)c4ccccc4)CC(O)(C(OC(=O)c4ccccc4)C21)C3(C)C (stereo unspecified) + C=CC(=O)N1CCN(c2nc(=O)n(-c3c(C)ccnc3C(C)C)c3nc(-c4c(O)cccc4F)c(F)cc23)C(C)C1
(A) 93.1%

====

System: 931267-113-T-J1-PDC KRAS spheroid with HUVEC/MSC, viability
Test: Anticancer human tumor 931267-113-T-J1-PDC cell line growth inhibition [KRAS2]; active means viability on the fitted dose curve at most 10% of control; inactive means the rest;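 further: compound exposure lasted 7 days before the readout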
Details: second compound 3.16 µM; first compound 0.0316 µM
Mark one answer only. Choices: Yes (active), No (inactive)

(Q) Check the results log: what was the call for CC1(C)CCC(CN2CCN(c3ccc(C(=O)NS(=O)(=O)c4ccc(NCC5CCOCC5)c([N+](=O)[O-])c4)c(Oc4cnc5[nH]ccc5c4)c3)CC2)=C(c2ccc(Cl)cc2)C1 + COc1cc2nc(C)nc(NC(C)c3cc(N)cc(C(F)(F)F)c3)c2cc1OC1CCOC1 ?
(A) No

(Q) Please let me know the test result on file for CCNC(=O)CC1N=C(c2ccc(Cl)cc2)c2cc(OC)ccc2-n2c(C)nnc21 (stereo not given) + CC1OCC2(CCN(c3cnc(Sc4ccnc(N)c4Cl)c(N)n3)CC2)C1N .
(A) No

(Q) Dear all, I need the recorded test outcome for CC(C)NCC(C(=O)N1CCN(c2ncnc3c2C(C)CC3O)CC1)c1ccc(Cl)cc1 (stereo not given) + COc1cc2nc(C)nc(NC(C)c3cc(N)cc(C(F)(F)F)c3)c2cc1OC1CCOC1 , thank you.
(A) No

(Q) What did the test return for O=C(c1cc(Cc2n[nH]c(=O)c3ccccc23)ccc1F)N1CCN(C(=O)C2CC2)CC1 + COc1cc2nc(C)nc(NC(C)c3cc(N)cc(C(F)(F)F)c3)c2cc1OC1CCOC1 ?
(A) No

(Q) Returns: the outcome recorded for O=C(c1cc(Cc2n[nH]c(=O)c3ccccc23)ccc1F)N1CCN(C(=O)C2CC2)CC1 + C=CC(=O)N1CCN(c2nc(OCC3CCCN3C)nc3c2CCN(c2cccc4cccc(C)c24)C3)CC1CC#N in this assay.
(A) Yes

(Q) Recorded test call requested for Cn1nccc1Nc1nccc(-c2cc3c(s2)C(C)(C)N(CCN2CCOCC2)C3=O)n1 + CNCc1ccccc1-c1csc(C(C)Nc2nc(C)nc3cc(OC)c(OC)cc23)c1
(A) Yes

(Q) Lab log entry: CCN1CCN(Cc2ccc(Nc3ncc(F)c(-c4cc(F)c5nc(C)n(C(C)C)c5c4)n3)nc2)CC1 + C=CC(=O)N1CCN(c2nc(=O)n(-c3c(C)ccnc3C(C)C)c3nc(-c4c(O)cccc4F)c(F)cc23)C(C)C1 — outcome as called in the assay?
(A) No

(Q) Which result was noted for this molecule in the test: CC1COCCN1c1cc(-c2ccnn2C)c2ccnc(-c3ccn[nH]3)c2n1 (stereo not given) + CNCc1ccccc1-c1csc(C(C)Nc2nc(C)nc3cc(OC)c(OC)cc23)c1
(A) Yes

(Q) # outcome recorded in this test, key = COc1cc2nccc(Oc3ccc(NC(=O)C4(C(=O)Nc5ccc(F)cc5)CC4)cc3)c2cc1OC + CNCc1ccccc1-c1csc(C(C)Nc2nc(C)nc3cc(OC)c(OC)cc23)c1
(A) Yes

(Q) Name the outcome recorded for CC1OCC2(CCN(c3cnc(Sc4ccnc(N)c4Cl)c(N)n3)CC2)C1N (stereo not given) + C=CC(=O)N1CCN(c2nc(OCC3CCCN3C)nc3c2CCN(c2cccc4cccc(C)c24)C3)CC1CC#N in the assay.
(A) Yes

====

Would you mind telling me the reported IC50 of each entry?
Tested on: 931267-113-T-J1-PDC KRAS spheroid with HUVEC/MSC, viability
Test: Anticancer human tumor 931267-113-T-J1-PDC cell line growth inhibition [KRAS2];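 further: compound exposure lasted 7 days before the readout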
Conditions: curve of first compound; second compound 1 µM

(Q) Supply IC50 value. Item: CN(C)C/C=C/C(=O)Nc1cc2c(Nc3ccc(F)c(Cl)c3)ncnc2cc1O[C@H]1CCOC1 + CC1OCC2(CCN(c3cnc(Sc4ccnc(N)c4Cl)c(N)n3)CC2)C1N
(A) > 100 nM

(Q) For the compound Cn1ncnc1[C@H]1c2n[nH]c(=O)c3cc(F)cc(c23)N[C@@H]1c1ccc(F)cc1 + CC1OCC2(CCN(c3cnc(Sc4ccnc(N)c4Cl)c(N)n3)CC2)C1N , give its measured IC50 value.
(A) > 100 nM

(Q) Give recorded IC50. COC(=O)c1ccc2c(C(=Nc3ccc(N(C)C(=O)CN4CCN(C)CC4)cc3)c3ccccc3)c(O)[nH]c2c1 + CC1OCC2(CCN(c3cnc(Sc4ccnc(N)c4Cl)c(N)n3)CC2)C1N
(A) < 31.6 nM

====

System: 931267-113-T-J1-PDC KRAS spheroid with HUVEC/MSC, viability
Assay: Anticancer human tumor 931267-113-T-J1-PDC cell line growth inhibition [KRAS2];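 further: compound exposure lasted 7 days before the readout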;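 on viability, T/C: 100% = DMSO vehicle control viability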
Details: second compound 3.16 µM; first compound 0.00316 µM; stronger effect = lower value
RECORDED_ENDPOINT: viability, T/C

(Q) Please indicate viability, T/C recorded for Cn1ncnc1[C@H]1c2n[nH]c(=O)c3cc(F)cc(c23)N[C@@H]1c1ccc(F)cc1 + CNCc1ccccc1-c1csc(C(C)Nc2nc(C)nc3cc(OC)c(OC)cc23)c1
(A) 0.09%

(Q) Please look at this molecule and report its viability, T/C: CCN1CCN(Cc2ccc(Nc3ncc(F)c(-c4cc(F)c5nc(C)n(C(C)C)c5c4)n3)nc2)CC1 + COc1cc2nc(C)nc(NC(C)c3cc(N)cc(C(F)(F)F)c3)c2cc1OC1CCOC1
(A) 74.5%

(Q) Give me measured viability, T/C, please, for this molecule: CCN1CCN(Cc2ccc(Nc3ncc(F)c(-c4cc(F)c5nc(C)n(C(C)C)c5c4)n3)nc2)CC1 + CNCc1ccccc1-c1csc(C(C)Nc2nc(C)nc3cc(OC)c(OC)cc23)c1
(A) 0.13%

(Q) For Cn1ncnc1[C@H]1c2n[nH]c(=O)c3cc(F)cc(c23)N[C@@H]1c1ccc(F)cc1 + C=CC(=O)N1CCN(c2nc(=O)n(-c3c(C)ccnc3C(C)C)c3nc(-c4c(O)cccc4F)c(F)cc23)C(C)C1 , write its viability, T/C.
(A) 98.8%

(Q) Input Cn1ncnc1[C@H]1c2n[nH]c(=O)c3cc(F)cc(c23)N[C@@H]1c1ccc(F)cc1 + COc1cc2nc(C)nc(NC(C)c3cc(N)cc(C(F)(F)F)c3)c2cc1OC1CCOC1 , output reported viability, T/C.
(A) 61.6%

(Q) Supply reported viability, T/C belonging to this molecule: Cn1ncnc1[C@H]1c2n[nH]c(=O)c3cc(F)cc(c23)N[C@@H]1c1ccc(F)cc1 + CC1OCC2(CCN(c3cnc(Sc4ccnc(N)c4Cl)c(N)n3)CC2)C1N
(A) 84.7%

(Q) For CC(=O)Nc1cccc(-n2c(=O)n(C3CC3)c(=O)c3c(Nc4ccc(I)cc4F)n(C)c(=O)c(C)c32)c1 + C=CC(=O)N1CCN(c2nc(OCC3CCCN3C)nc3c2CCN(c2cccc4cccc(C)c24)C3)CC1CC#N , write its viability, T/C.
(A) 0.24%

The origin of these recorded values is PubChem BioAssay AID1963863.
